system: 883617-216-R-J1-PDC complex spheroid viability; experiment: Anticancer human tumor 883617-216-R-J1-PDC patient-derived bladder carcinoma cell line growth inhibition [POLQ]; conditions: second compound 0.316 µM; first compound 0.1 µM; stronger effect = lower value
Property Name: viability, T/C (%)
# unit: % | format: bare number

Prompt line: GET /values?readout=viability, T/C&item= Nc1ccn(C2OC(CO)C(O)C2(F)F)c(=O)n1 (stereo unspecified) + COC1C(OC(N)=O)C(O)C(Oc2ccc3c(O)c(NC(=O)c4ccc(O)c(CC=C(C)C)c4)c(=O)oc3c2C)OC1(C)C
Response line: 35.1

Prompt line: Next up: CCc1cc2c(N3CCc4c(cc(Cn5ccnc5)cc4-c4cn(C)nc4C(F)(F)F)C3=O)ccnc2c(OC)n1 + COC1C(OC(N)=O)C(O)C(Oc2ccc3c(O)c(NC(=O)c4ccc(O)c(CC=C(C)C)c4)c(=O)oc3c2C)OC1(C)C
Response line: 93.4

Prompt line: Next up: COc1cccc(OCCCN)c1-c1cc(Nc2cnc(C#N)cn2)n[nH]1 + COC1C(OC(N)=O)C(O)C(Oc2ccc3c(O)c(NC(=O)c4ccc(O)c(CC=C(C)C)c4)c(=O)oc3c2C)OC1(C)C
Response line: 37.6

Prompt line: Next up: O=c1[nH]cc(F)c(=O)[nH]1 + Nc1ccc(C#CCN(C(=O)Cc2ncc(C(F)(F)F)cc2C(F)(F)F)c2ccc(F)cc2)nn1
Response line: 106

Prompt line: Next up: C#Cc1c(F)ccc2cc(O)cc(-c3ncc4c(N5CC6CCC(C5)N6)nc(OCC56CCCN5CC(F)C6)nc4c3F)c12 (stereo unspecified) + COC1C(OC(N)=O)C(O)C(Oc2ccc3c(O)c(NC(=O)c4ccc(O)c(CC=C(C)C)c4)c(=O)oc3c2C)OC1(C)C
Response line: 114

Prompt line: Next up: CNCc1ccc(-c2[nH]c3cc(F)cc4c3c2CCNC4=O)cc1 + Cc1cccc(N(C)C(=O)C2C(O)CCN2c2nc(C)cc(C(F)(F)F)c2C#N)c1
Response line: 92

Prompt line: Next up: O=c1[nH]cc(F)c(=O)[nH]1 + COC1C(OC(N)=O)C(O)C(Oc2ccc3c(O)c(NC(=O)c4ccc(O)c(CC=C(C)C)c4)c(=O)oc3c2C)OC1(C)C
Response line: 99.6

Prompt line: Next up: CNCc1ccc(-c2[nH]c3cc(F)cc4c3c2CCNC4=O)cc1 + COC1C(OC(N)=O)C(O)C(Oc2ccc3c(O)c(NC(=O)c4ccc(O)c(CC=C(C)C)c4)c(=O)oc3c2C)OC1(C)C
Response line: 98.9

Prompt line: Next up: O=C(Nc1ccc(O)c(NS(=O)(=O)c2ccc(F)cc2)c1)c1ccc(-c2ccccc2)cc1 + Cc1cccc(N(C)C(=O)C2C(O)CCN2c2nc(C)cc(C(F)(F)F)c2C#N)c1
Response line: 103

Prompt line: Next up: C=CCn1c(=O)c2cnc(Nc3ccc(N4CCN(C)CC4)cc3)nc2n1-c1cccc(C(C)(C)O)n1 + Nc1ccc(C#CCN(C(=O)Cc2ncc(C(F)(F)F)cc2C(F)(F)F)c2ccc(F)cc2)nn1
Response line: 108

Prompt line: Next up: COc1cc(C2c3cc4c(cc3C(OC3OC5COC(C)OC5C(O)C3O)C3COC(=O)C23)OCO4)cc(OC)c1O (stereo unspecified) + Nc1ccc(C#CCN(C(=O)Cc2ncc(C(F)(F)F)cc2C(F)(F)F)c2ccc(F)cc2)nn1
Response line: 105

Prompt line: Next up: CCCS(=O)(=O)Nc1ccc(F)c(C(=O)c2c[nH]c3ncc(-c4ccc(Cl)cc4)cc23)c1F + COC1C(OC(N)=O)C(O)C(Oc2ccc3c(O)c(NC(=O)c4ccc(O)c(CC=C(C)C)c4)c(=O)oc3c2C)OC1(C)C
Response line: 102

Prompt line: Next up: CC(C)n1c(=O)n(C)c2cnc3cc(F)c(-c4ccc(OCCCN5CCCCC5)nc4)cc3c21 + Nc1ccc(C#CCN(C(=O)Cc2ncc(C(F)(F)F)cc2C(F)(F)F)c2ccc(F)cc2)nn1
Response line: 89.5

Prompt line: Next up: CC[C@@]1(O)C(=O)OCc2c1cc1n(c2=O)Cc2cc3c(CN(C)C)c(O)ccc3nc2-1 + Nc1ccc(C#CCN(C(=O)Cc2ncc(C(F)(F)F)cc2C(F)(F)F)c2ccc(F)cc2)nn1
Response line: 80.9

Prompt line: Next up: O=c1[nH]cc(F)c(=O)[nH]1 + Cc1cccc(N(C)C(=O)C2C(O)CCN2c2nc(C)cc(C(F)(F)F)c2C#N)c1
Response line: 107

Prompt line: Next up: CCCS(=O)(=O)Nc1ccc(F)c(C(=O)c2c[nH]c3ncc(-c4ccc(Cl)cc4)cc23)c1F + Cc1cccc(N(C)C(=O)C2C(O)CCN2c2nc(C)cc(C(F)(F)F)c2C#N)c1
Response line: 114

Prompt line: Next up: COc1ccc([C@@H](O)c2cc(-c3ncnc4cc(N5CCOCC5)ccc34)c(F)cc2Cl)nn1 + Cc1cccc(N(C)C(=O)C2C(O)CCN2c2nc(C)cc(C(F)(F)F)c2C#N)c1
Response line: 101

Prompt line: Next up: COc1cc2cc(C(=O)CCC(=O)O)sc2cc1OC + COC1C(OC(N)=O)C(O)C(Oc2ccc3c(O)c(NC(=O)c4ccc(O)c(CC=C(C)C)c4)c(=O)oc3c2C)OC1(C)C
Response line: 83.6

Prompt line: Next up: C=CCn1c(=O)c2cnc(Nc3ccc(N4CCN(C)CC4)cc3)nc2n1-c1cccc(C(C)(C)O)n1 + COC1C(OC(N)=O)C(O)C(Oc2ccc3c(O)c(NC(=O)c4ccc(O)c(CC=C(C)C)c4)c(=O)oc3c2C)OC1(C)C
Response line: 107

Prompt line: Next up: COc1cccc2c1C(=O)c1c(O)c3c(c(O)c1C2=O)CC(O)(C(=O)CO)CC3OC1CC(N)C(O)C(C)O1 (stereo unspecified) + Cc1cccc(N(C)C(=O)C2C(O)CCN2c2nc(C)cc(C(F)(F)F)c2C#N)c1
Response line: 59.8

Prompt line: Next up: COc1cccc(OCCCN)c1-c1cc(Nc2cnc(C#N)cn2)n[nH]1 + Nc1ccc(C#CCN(C(=O)Cc2ncc(C(F)(F)F)cc2C(F)(F)F)c2ccc(F)cc2)nn1
Response line: 52.6

* * *

system: 883617-216-R-J1-PDC complex spheroid viability; assay: Anticancer human tumor 883617-216-R-J1-PDC cell line growth inhibition [POLQ]; conditions: second compound 3.16 µM; first compound 0.000316 µM; stronger effect = lower value;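 also: spheroids exposed to compounds for seven days before readout; 100% = DMSO vehicle control viability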
For each of the molecules below, state its viability, T/C.
# unit: % | format: bare number

Prompt line: GET /values?readout=viability, T/C&item= Cn1ncnc1[C@H]1c2n[nH]c(=O)c3cc(F)cc(c23)N[C@@H]1c1ccc(F)cc1 + COC1C(OC(N)=O)C(O)C(Oc2ccc3c(O)c(NC(=O)c4ccc(O)c(CC=C(C)C)c4)c(=O)oc3c2C)OC1(C)C
Response line: 99.4

Prompt line: Next up: CC[C@@]1(O)C(=O)OCc2c1cc1n(c2=O)Cc2cc3c(CN(C)C)c(O)ccc3nc2-1 + Nc1ccc(C#CCN(C(=O)Cc2ncc(C(F)(F)F)cc2C(F)(F)F)c2ccc(F)cc2)nn1
Response line: 102

Prompt line: Next up: CC[C@@]1(O)C(=O)OCc2c1cc1n(c2=O)Cc2cc3c(CN(C)C)c(O)ccc3nc2-1 + COC1C(OC(N)=O)C(O)C(Oc2ccc3c(O)c(NC(=O)c4ccc(O)c(CC=C(C)C)c4)c(=O)oc3c2C)OC1(C)C
Response line: 107

Prompt line: Next up: CC[C@@]1(O)C(=O)OCc2c1cc1n(c2=O)Cc2cc3c(CN(C)C)c(O)ccc3nc2-1 + Cc1cccc(N(C)C(=O)C2C(O)CCN2c2nc(C)cc(C(F)(F)F)c2C#N)c1
Response line: 100

Prompt line: Next up: Cn1ncnc1[C@H]1c2n[nH]c(=O)c3cc(F)cc(c23)N[C@@H]1c1ccc(F)cc1 + Cc1cccc(N(C)C(=O)C2C(O)CCN2c2nc(C)cc(C(F)(F)F)c2C#N)c1
Response line: 109

Prompt line: Next up: Cn1ncnc1[C@H]1c2n[nH]c(=O)c3cc(F)cc(c23)N[C@@H]1c1ccc(F)cc1 + Nc1ccc(C#CCN(C(=O)Cc2ncc(C(F)(F)F)cc2C(F)(F)F)c2ccc(F)cc2)nn1
Response line: 101

* * *

test system: 883617-216-R-J1-PDC complex spheroid viability; experiment: Anticancer human tumor 883617-216-R-J1-PDC cell line growth inhibition [POLQ]; details: second compound 0.0316 µM; first compound 0.001 µM; stronger effect = lower value;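 also: spheroids exposed to compounds for seven days before readout; 100% = DMSO vehicle control viability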
Property Name: viability, T/C

Prompt line: GET /values?readout=viability, T/C&item= CC[C@@]1(O)C(=O)OCc2c1cc1n(c2=O)Cc2cc3c(CN(C)C)c(O)ccc3nc2-1 + Cc1cccc(N(C)C(=O)C2C(O)CCN2c2nc(C)cc(C(F)(F)F)c2C#N)c1
Response line: 85.8%

Prompt line: Next up: Cn1ncnc1[C@H]1c2n[nH]c(=O)c3cc(F)cc(c23)N[C@@H]1c1ccc(F)cc1 + Cc1cccc(N(C)C(=O)C2C(O)CCN2c2nc(C)cc(C(F)(F)F)c2C#N)c1
Response line: 101%

Prompt line: Next up: CC[C@@]1(O)C(=O)OCc2c1cc1n(c2=O)Cc2cc3c(CN(C)C)c(O)ccc3nc2-1 + Nc1ccc(C#CCN(C(=O)Cc2ncc(C(F)(F)F)cc2C(F)(F)F)c2ccc(F)cc2)nn1
Response line: 99.7%

Prompt line: Next up: CC[C@@]1(O)C(=O)OCc2c1cc1n(c2=O)Cc2cc3c(CN(C)C)c(O)ccc3nc2-1 + COC1C(OC(N)=O)C(O)C(Oc2ccc3c(O)c(NC(=O)c4ccc(O)c(CC=C(C)C)c4)c(=O)oc3c2C)OC1(C)C
Response line: 98.5%

Prompt line: Next up: Cn1ncnc1[C@H]1c2n[nH]c(=O)c3cc(F)cc(c23)N[C@@H]1c1ccc(F)cc1 + Nc1ccc(C#CCN(C(=O)Cc2ncc(C(F)(F)F)cc2C(F)(F)F)c2ccc(F)cc2)nn1
Response line: 94.4%

Prompt line: Next up: Cn1ncnc1[C@H]1c2n[nH]c(=O)c3cc(F)cc(c23)N[C@@H]1c1ccc(F)cc1 + COC1C(OC(N)=O)C(O)C(Oc2ccc3c(O)c(NC(=O)c4ccc(O)c(CC=C(C)C)c4)c(=O)oc3c2C)OC1(C)C
Response line: 93.1%
